Molecular target: T1, Human SIRPαV2 (CAA71403.1), Extracellular Domain + His-Tag (human, UniProt P78324 31-373)
T1 construct: also called huSIRPαV2; hSIRPαV2; not shown: His-Tag
T1 sequence (P78324 other isoform, or with tags, fused parts or gaps): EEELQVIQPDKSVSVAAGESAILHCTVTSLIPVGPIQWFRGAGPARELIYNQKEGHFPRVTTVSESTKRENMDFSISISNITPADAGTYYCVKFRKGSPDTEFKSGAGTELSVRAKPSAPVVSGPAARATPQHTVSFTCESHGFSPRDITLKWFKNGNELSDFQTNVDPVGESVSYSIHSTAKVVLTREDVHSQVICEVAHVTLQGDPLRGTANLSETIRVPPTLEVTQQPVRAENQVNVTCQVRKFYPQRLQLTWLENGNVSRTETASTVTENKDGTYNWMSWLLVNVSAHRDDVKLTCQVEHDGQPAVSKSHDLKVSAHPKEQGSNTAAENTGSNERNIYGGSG
Experiment: SPR, antibody captured on Protein A/G, ECD-His analyte, 1:1 fit
Can you tell me kon for the items I'm about to list?
Answers are plain numbers, in M⁻¹ s⁻¹.

// known answers, use as guide
Antibody A12 (antibody, human IgG1, kappa, L234A L235A, V domains shown) VH: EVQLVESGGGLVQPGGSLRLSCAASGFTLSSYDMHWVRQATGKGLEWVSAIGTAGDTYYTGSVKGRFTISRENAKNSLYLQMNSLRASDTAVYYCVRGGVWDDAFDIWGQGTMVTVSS VL: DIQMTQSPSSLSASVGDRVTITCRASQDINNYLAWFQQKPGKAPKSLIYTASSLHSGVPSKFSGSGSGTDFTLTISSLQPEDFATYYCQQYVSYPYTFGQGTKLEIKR : 769000
Antibody E2 (antibody, human IgG1, kappa, L234A L235A, V domains shown) VH: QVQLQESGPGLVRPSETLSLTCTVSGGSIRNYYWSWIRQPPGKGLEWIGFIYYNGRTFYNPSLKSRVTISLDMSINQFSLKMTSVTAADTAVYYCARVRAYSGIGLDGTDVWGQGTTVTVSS VL: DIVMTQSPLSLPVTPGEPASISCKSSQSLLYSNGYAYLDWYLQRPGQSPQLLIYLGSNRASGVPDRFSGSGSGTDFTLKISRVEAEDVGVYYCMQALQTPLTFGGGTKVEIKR : 535000
Antibody E5 (antibody, human IgG1, kappa, L234A L235A, V domains shown) VH: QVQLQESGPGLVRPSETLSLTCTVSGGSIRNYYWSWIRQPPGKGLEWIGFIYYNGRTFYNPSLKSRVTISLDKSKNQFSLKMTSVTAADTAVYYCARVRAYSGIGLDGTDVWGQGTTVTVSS VL: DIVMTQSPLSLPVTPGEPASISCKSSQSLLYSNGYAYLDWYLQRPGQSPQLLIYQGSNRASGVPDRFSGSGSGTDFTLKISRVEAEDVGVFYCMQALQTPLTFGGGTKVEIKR : 406000
Antibody A15 (antibody, human IgG1, kappa, L234A L235A, V domains shown) VH: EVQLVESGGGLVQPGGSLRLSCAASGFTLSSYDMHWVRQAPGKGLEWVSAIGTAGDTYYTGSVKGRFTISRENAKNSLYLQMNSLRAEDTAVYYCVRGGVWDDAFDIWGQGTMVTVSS VL: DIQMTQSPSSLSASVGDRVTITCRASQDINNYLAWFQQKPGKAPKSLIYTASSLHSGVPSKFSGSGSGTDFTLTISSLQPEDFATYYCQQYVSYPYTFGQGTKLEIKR : 848000

Here is another binder to look at.
Fill blank: measured kon of the binder Antibody E9 (antibody, human IgG1, kappa, L234A L235A, V domains shown) VH: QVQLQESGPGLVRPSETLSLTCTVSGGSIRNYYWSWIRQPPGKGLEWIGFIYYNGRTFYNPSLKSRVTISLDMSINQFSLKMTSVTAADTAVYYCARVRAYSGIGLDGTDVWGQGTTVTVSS VL: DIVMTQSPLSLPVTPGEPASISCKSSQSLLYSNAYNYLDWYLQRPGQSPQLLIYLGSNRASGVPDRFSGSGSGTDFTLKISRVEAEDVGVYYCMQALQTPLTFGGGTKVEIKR is ____.
583000

From: patent US20230012273A1
